Values from PubChem BioAssay

Target: Dihydroorotate dehydrogenase (quinone), mitochondrial (Plasmodium falciparum (isolate 3D7)) (UniProt Q08210)
Sequence (Q08210 whole entry, looked up): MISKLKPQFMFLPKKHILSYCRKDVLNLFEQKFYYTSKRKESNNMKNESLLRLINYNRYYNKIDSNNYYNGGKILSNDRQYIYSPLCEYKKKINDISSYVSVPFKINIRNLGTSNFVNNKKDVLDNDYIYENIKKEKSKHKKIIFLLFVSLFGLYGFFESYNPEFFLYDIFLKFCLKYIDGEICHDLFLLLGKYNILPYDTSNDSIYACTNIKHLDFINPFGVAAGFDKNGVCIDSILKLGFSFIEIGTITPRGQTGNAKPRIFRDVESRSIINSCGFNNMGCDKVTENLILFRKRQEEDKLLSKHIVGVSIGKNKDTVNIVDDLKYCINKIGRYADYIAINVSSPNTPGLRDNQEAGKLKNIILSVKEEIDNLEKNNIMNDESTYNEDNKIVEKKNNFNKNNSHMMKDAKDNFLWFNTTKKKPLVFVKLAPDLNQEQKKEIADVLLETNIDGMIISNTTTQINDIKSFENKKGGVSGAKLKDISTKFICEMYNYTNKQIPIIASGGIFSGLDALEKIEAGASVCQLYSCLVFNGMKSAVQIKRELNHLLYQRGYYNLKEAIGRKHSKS
Test: PfDHODH enzyme inhibitors, primary screen, biochemical, C-terminal His tag, absorbance 600 nm (AID 1175);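 also: recombinant parasite enzyme with a five histidine tag at its C terminus; test concentration not given here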
Settings: DCIP absorbance 600 nm, called active from +8 up or from −8 down
Active and inactive are the calls of the source.
Labels: 1.0 for active, 0.0 for inactive

Compound	Label
COc1ccc([Si](C)(C)[C@H]2[C@H](CC(=O)N3CCC[C@H]3CO)O[C@@]3(C(=O)N(Cc4cccc(N5C(=O)c6cccc7cccc5c67)c4)c4ccccc43)[C@@H]2C)cc1	0.0
C=C(C)C1C(=C)CN([C@H](CO)c2ccccc2)C1=O (some centres not stated)	0.0
COCCOC(=O)N1C(=O)[C@@]2(c3cc(C#Cc4ccc(OC)cc4)ccc31)[C@H](c1ccc(O)cc1)N1[C@H](c3ccccc3)[C@H](c3ccccc3)OC(=O)[C@H]1[C@@H]2C(=O)NC[C@H](O)c1ccccc1	0.0
O=C1[C@H]2C=C(Br)[C@H](C[C@@H]2OCCCCO)[C@@]12CO2	0.0
COc1ccc(COC2OC[C@]3(C)[C@H]4C5=C(CN3C(=O)OC(C)(C)C)[C@H](C)C(CO)C(CO)C5CC[C@@H]24)cc1 (some centres not stated)	0.0
COc1ccc(C(=O)Nc2cccc(CN3C(=O)[C@]4(O[C@H](CCO)[C@@H]([Si](C)(C)c5ccc(OC)cc5)[C@@H]4C)c4ccccc43)c2)cc1	0.0
C=CCNC(=O)[C@@H]1[C@H]2C(=O)O[C@H](c3ccccc3)[C@H](c3ccccc3)N2[C@H](c2ccc(OCCO)cc2)[C@@]12C(=O)Nc1ccc(C#CCCO)cc12	0.0
COc1ccc([C@H]2OC[C@@H]3CC4(CC=CC4)C(=O)N32)cc1	0.0
CC(=O)N1Cc2ccccc2C[C@@]2(COC(c3ccc(OCCCO)cc3)=N2)C1=O	0.0
COc1cc(OC)c(C(O)C2C=CC3C(=O)NC(=O)C3N2Nc2ccc(Cl)cc2Cl)cc1Br (configuration not stated)	0.0
CN(C)CCCNC(=O)[C@@]1(c2ccc([N+](=O)[O-])cc2)CC(=O)N(C2CCCCC2)[C@@H]1c1ccc(CO)cc1I	0.0
COc1ccc([Si](C)(C)[C@@H]2[C@@H](CC(=O)N3Cc4ccccc4C[C@H]3CO)O[C@]3(C(=O)N(C)c4c(Br)cc(C)cc43)[C@H]2C)cc1	0.0
CCOC1=C2C(CN(S(=O)(=O)c3ccc(C)cc3)C2c2ccc(C)cc2)C2C(=O)N(c3ccccc3)C(=O)C2C1 (configuration not stated)	0.0
O=C1O[C@@H](c2ccccc2)[C@@H](c2ccccc2)N2[C@@H](c3ccccc3OCCO)[C@]3(C(=O)Nc4ccc(C#CC5=CCCCC5)cc43)[C@@H](C(=O)Nc3nc4ccccc4s3)[C@H]12	0.0
COc1ccc([Si](C)(C)[C@H]2[C@H](CCO)O[C@@]3(C(=O)N(Cc4ccc(N5C(=O)COc6ccccc65)cc4)c4ccccc43)[C@@H]2C)cc1	0.0
O=C1OCC=C[C@H]2OC34C=CCN(CCN5CCOCC5)C(=O)[C@H]3N(CCCO)C(=O)[C@@H]4[C@@H]12 (some centres not stated)	0.0
[N-]=[N+]=Nc1ccccc1C[C@]1(C(N)=O)N=C(c2ccc(OCCCO)cc2)O[C@H]1c1ccccc1	0.0
C=CCNC(=O)[C@@H]1[C@H]2C(=O)O[C@H](c3ccccc3)[C@H](c3ccccc3)N2[C@H](c2ccc(OCCO)cc2)[C@@]12C(=O)Nc1ccc(C#Cc3ccc(OC)cc3)cc12	0.0
O=C(NCc1ccccc1)[C@@]1(Cc2ccccc2)N=C(c2ccc(OCCCO)cc2)O[C@H]1c1ccccc1	0.0
CCCC[C@H]1OB(O)C[C@H]2C1=C(COc1ccccc1)C[C@H]1C(=O)N(C)C(=O)[C@H]12	0.0
C=C(COC)/C(=C/C[C@@H](OC(C)=O)c1ccc(CO)o1)c1cnc2ccccc2c1	1.0
CCOC(=O)C1=CCC(c2ccccc2)N(S(=O)(=O)CC[Si](C)(C)C)C1 (configuration not stated)	0.0
